# assayed.target: ErbB2 insYVMA (HER2-YVMA, SEQ ID NO: 2) (Homo sapiens, UniProt P04626, INS775YVMA/P1170A)
# Sequence (P04626 with tags, fused parts or gaps INS775YVMA/P1170A limits assumed): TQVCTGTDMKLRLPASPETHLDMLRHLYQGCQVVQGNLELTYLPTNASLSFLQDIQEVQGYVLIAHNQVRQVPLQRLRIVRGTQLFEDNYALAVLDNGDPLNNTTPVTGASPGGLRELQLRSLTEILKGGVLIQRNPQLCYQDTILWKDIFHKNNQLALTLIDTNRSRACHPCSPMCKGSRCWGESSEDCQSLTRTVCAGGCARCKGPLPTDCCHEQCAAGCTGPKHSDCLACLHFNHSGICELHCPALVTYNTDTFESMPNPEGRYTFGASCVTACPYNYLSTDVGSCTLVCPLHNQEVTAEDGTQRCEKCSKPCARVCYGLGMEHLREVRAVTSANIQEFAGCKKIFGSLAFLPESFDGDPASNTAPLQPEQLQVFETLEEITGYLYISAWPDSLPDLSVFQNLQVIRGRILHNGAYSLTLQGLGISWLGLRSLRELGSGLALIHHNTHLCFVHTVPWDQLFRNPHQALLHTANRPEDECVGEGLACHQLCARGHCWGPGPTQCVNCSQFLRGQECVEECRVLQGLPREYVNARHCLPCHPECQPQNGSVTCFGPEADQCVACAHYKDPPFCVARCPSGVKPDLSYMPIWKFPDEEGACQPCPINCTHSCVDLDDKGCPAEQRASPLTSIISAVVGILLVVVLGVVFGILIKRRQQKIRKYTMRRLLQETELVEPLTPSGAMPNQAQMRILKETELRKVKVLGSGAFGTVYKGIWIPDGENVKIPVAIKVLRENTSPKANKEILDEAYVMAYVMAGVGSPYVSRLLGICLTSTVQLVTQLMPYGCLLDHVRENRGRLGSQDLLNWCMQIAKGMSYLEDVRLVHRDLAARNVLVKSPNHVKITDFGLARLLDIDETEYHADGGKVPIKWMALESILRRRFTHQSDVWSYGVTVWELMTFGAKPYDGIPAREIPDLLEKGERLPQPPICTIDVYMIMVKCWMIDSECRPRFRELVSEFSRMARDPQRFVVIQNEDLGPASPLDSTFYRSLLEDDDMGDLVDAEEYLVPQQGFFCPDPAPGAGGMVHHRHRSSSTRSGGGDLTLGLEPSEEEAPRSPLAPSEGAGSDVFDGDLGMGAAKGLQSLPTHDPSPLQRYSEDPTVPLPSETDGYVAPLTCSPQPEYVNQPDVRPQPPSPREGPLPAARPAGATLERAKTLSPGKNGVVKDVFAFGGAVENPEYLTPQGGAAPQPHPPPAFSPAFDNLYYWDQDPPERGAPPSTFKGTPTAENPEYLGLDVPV
# experimental.details: biochemical
# run.conditions: ErbB2 insYVMA enzyme assay; read-out: Assay 1 IC50
Binary call on IC50 with cut-off 0.06 µM: strictly below means 1, and equality or higher means -1.

input: Input CC(=O)N1C2CC1CN(c1ncc3ncnc(Nc4ccc(Oc5ccc6c(c5)ncn6C)c(C)c4)c3n1)C2 [Example 89] ; condition: IC50 strictly below 0.06 µM. Does it hold?
output: -1

input: Input Cc1cc(Nc2ncnc3cnc(N4CCN[C@H](C(F)(F)F)C4)nc23)ccc1Oc1ccn2ncnc2c1 [Example 355] ; condition: IC50 strictly below 0.06 µM. Does it hold?
output: 1

input: Input Cc1cc(Nc2ncnc3cnc(N(C)C[C@H](C)O)nc23)ccc1Oc1ccc2c(c1)ncn2C [Example 195] ; condition: IC50 strictly below 0.06 µM. Does it hold?
output: 1

input: Input Cn1cnc2cc(Oc3ccc(Nc4ncnc5cnc(N6CCN(CC(F)F)CC6)nc45)cc3Cl)ccc21 [Example 484] ; condition: IC50 strictly below 0.06 µM. Does it hold?
output: 1

input: Input CSc1ncc2ncnc(Nc3ccc(Oc4ccc5c(C)onc5c4)c(C)c3)c2n1 [Example 12] ; condition: IC50 strictly below 0.06 µM. Does it hold?
output: -1

----------
Measured IC50 accompanies every entry in the list below.
# assayed.target: ErbB2 insYVMA (HER2-YVMA, SEQ ID NO: 2) (Homo sapiens, UniProt P04626, INS775YVMA/P1170A)
# experimental.details: biochemical
# run.conditions: ErbB2 insYVMA enzyme assay; read-out: Assay 1 IC50
Answer format: numeric, nM implied, no suffix.

input: Consider the compound CON1CCN(c2ncc3ncnc(Nc4ccc(Oc5ccc6c(c5)ncn6C)c(C)c4Cl)c3n2)CC1 [Example 98] and give its measured IC50.
output: 232

----------
# assayed.target: ErbB2 with Exon 20 YVMA insertion (HER2-YVMA) (Homo sapiens (Human), UniProt P04626, INS775YVMA)
# Sequence (P04626 other isoform, or with tags, fused parts or gaps ins YVMA behind 775): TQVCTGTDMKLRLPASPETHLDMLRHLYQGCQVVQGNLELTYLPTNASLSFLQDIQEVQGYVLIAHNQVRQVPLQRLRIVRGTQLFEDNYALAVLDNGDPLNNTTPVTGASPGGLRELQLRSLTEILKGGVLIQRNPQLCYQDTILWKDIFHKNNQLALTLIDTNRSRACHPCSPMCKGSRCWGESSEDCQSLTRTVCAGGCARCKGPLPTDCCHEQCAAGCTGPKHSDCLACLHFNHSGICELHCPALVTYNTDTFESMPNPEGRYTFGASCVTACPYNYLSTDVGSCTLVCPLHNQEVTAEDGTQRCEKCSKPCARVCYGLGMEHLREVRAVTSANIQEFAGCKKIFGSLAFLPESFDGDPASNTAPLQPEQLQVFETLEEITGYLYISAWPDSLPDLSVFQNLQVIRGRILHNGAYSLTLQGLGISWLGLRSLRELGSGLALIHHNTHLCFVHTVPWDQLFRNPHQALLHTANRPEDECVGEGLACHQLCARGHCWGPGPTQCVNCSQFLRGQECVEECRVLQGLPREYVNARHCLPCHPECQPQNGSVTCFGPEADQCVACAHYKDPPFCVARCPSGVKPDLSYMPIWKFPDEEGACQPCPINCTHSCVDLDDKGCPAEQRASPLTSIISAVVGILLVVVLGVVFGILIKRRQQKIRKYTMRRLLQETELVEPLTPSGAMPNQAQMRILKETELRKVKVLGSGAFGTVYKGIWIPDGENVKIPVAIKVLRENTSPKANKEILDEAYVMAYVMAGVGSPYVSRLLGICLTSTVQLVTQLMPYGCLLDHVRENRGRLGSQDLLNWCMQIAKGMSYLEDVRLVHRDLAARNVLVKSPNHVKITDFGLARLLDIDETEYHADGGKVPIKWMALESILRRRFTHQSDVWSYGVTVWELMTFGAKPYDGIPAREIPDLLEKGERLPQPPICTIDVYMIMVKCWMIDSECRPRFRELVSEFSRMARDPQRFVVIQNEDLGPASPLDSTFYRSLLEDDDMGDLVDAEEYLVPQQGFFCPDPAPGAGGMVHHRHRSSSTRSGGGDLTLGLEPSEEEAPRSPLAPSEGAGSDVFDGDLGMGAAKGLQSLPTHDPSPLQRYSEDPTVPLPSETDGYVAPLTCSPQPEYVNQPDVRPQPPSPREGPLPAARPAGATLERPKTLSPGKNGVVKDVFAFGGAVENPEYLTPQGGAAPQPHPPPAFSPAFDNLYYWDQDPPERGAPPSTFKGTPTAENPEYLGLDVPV
# experimental.details: Cellular phosphorylation assay, constitutive ErbB2 phosphorylation (Y1196) in engineered NIH 3T3 cells, Assay 4
# Description: Serially diluted compounds were added to the plates for 1 hour at 37° C./5% CO2. EGFR WT cells were stimulated with 100 ng/ml rEGF for an additional 10 minutes at 37° C./5% CO2. After compound incubation, medium was removed from the cells, which were then fixed in 3.7% formaldehyde in PBS at room temperature for 20 minutes. […] Cells were then washed and analyzed for fluorescence at both wavelengths using the Odyssey Infrared Imaging System (LI-COR Biosciences). […]
value.kind: pIC50
Recall that pIC50 is obtained by taking minus log10 of the concentration measured in molar.

Some compounds with known pIC50 results, for comparison:
• CC(=O)N1C2CC1CN(c1ncc3ncnc(Nc4ccc(Oc5ccc6c(c5)ncn6C)c(C)c4)c3n1)C2 = 6.73
• Cc1cc(Nc2ncnc3cnc(N4C[C@H]5C[C@@H]4CO5)nc23)ccc1Oc1ccn2ncnc2c1 = 6.18
• Cc1cc(Nc2ncnc3cnc(N4C[C@H]5CCS(=O)(=O)[C@H]5C4)nc23)ccc1Oc1ccc2c(c1)ncn2C (racemic) = 7.63
• Cc1cc(Nc2ncnc3cnc(N(C)CC(C)(C)O)nc23)ccc1Oc1ccc2c(c1)ncn2C = 7.67

input: Consider the compound CON(C)CCNc1ncc2ncnc(Nc3ccc(Oc4ccc5c(c4)ncn5C)c(C)c3)c2n1 and give its measured pIC50.
output: 8.21

input: Consider the compound CN(c1ncc2ncnc(Nc3ccc(Oc4ccc5c(c4)ncn5C)c(Cl)c3)c2n1)C1COC1 and give its measured pIC50.
output: 7.88

input: Consider the compound CC1(C)CN(c2ncc3ncnc(Nc4ccc(Oc5ccn6ncnc6c5)c(Cl)c4)c3n2)CC[C@@H]1O and give its measured pIC50.
output: 7.15

Origin of measurements: patent US11834453B2
